Assay: Displacement of [3H]di-o-tolylguanidine from sigma-2 opioid receptor in rat brain
Format: tissue-based
outcome measure: pKi
pKi field: float, defined as -log10 of concentration (mol/L).

INPUT: Reported pKi, molecule CC(=O)c1ccc2c(c1)oc(=O)n2CCCCN1CCN(c2ccc(F)cc2)CC1 : ____
OUTPUT: 8.15

----------
Experiment: Lipophilicity, log P of the compound
Type: physicochemical
Conditions: octanol/water
outcome measure: logP
The response must contain the number and no unit.

INPUT: Reported logP, molecule COc1cc(Br)cc(C(=O)NCCCCN2CCN(c3cccc(Cl)c3Cl)CC2)c1OC : ____
OUTPUT: 5.76

----------
Assay: Binding affinity to guinea pig hippocampus sigma-2 opioid receptor
Design: species or system Cavia porcellus
outcome measure: pKi
pKi field: float, defined as -log10 of concentration (mol/L).

INPUT: Reported pKi, molecule CCn1c(=O)n(C(=O)NC2CC3CCC(C2)N3C)c2ccccc21 (stereo unspecified) : ____
OUTPUT: 7.49

----------
Assay: Binding affinity to sigma-1 opioid receptor (unknown origin)
outcome measure: pKi
pKi field: float, defined as -log10 of concentration (mol/L).

[[record]]
structure_smiles = "COc1cc2c(cc1OC)CN(CCNC(=O)c1cc(Br)ccc1OC)CC2"
recorded_number = 5.26

[[record]]
structure_smiles = "COc1cc(Br)cc(C(=O)NCCCCN2CCN(c3cccc(Cl)c3Cl)CC2)c1OC"
recorded_number = 6.09


Could you now consider this next compound?
INPUT: Reported pKi, compound COc1cc2c(cc1OC)CN(CCNC(=O)c1cc(Br)cc(OC)c1OC)CC2 : ____
OUTPUT: 5.53

----------
Assay: Displacement of [3H]-DTG from sigma-2 opioid receptor in rat liver
outcome measure: Ki (nM)
The answer is to be given in nM; state only the numeric part.

[[record]]
molecule = "COc1cccc2c1CCCC2CCCC1CCN(C2CCCCC2)CC1 (centres undefined)"
outcome_measure = "Ki"
recorded_number = 26.6

[[record]]
molecule = "COc1cccc2c1CCC[C@H]2NC(=O)CN1CCN(C2CCCCC2)CC1"
outcome_measure = "Ki"
recorded_number = 10.1

[[record]]
molecule = "COc1cccc2c1CCCC2CCCN1CCC(C2CCCCC2)CC1 (centres undefined)"
outcome_measure = "Ki"
recorded_number = 18.8


INPUT: Reported Ki, molecule COc1cccc2c1CCC[C@@H]2NC(=O)CN1CCN(C2CCCCC2)CC1 : ____
OUTPUT: 6

----------
Entries and their Ki
Target: Sigma non-opioid intracellular receptor 1 (Homo sapiens)
Sequence (Q99720 whole entry): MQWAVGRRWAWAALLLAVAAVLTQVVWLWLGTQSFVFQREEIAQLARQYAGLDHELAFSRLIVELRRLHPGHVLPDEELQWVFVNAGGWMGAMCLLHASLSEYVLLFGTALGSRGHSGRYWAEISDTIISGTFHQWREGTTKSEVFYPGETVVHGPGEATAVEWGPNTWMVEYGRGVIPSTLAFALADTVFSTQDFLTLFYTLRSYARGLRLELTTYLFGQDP
Experiment: Binding affinity to sigma-1 opioid receptor (unknown origin)
The answer is to be given in nM; state only the numeric part.

These recorded examples may help you get a feel for the data.
[[record]]
compound = "CN1CC[C@@]2(c3cccc(O)c3)CC(=O)/C(=C/c3ccc(Cl)c(Cl)c3)[C@@H]1C2"
recorded_number = 27.3

[[record]]
compound = "CN1CC[C@]2(c3cccc(O)c3)CC(=O)/C(=C/c3cccc(O)c3)[C@H]1C2"
recorded_number = 3060

[[record]]
compound = "Fc1ccc(C2=CC3CCC(C2)N3CCCCc2cn(-c3ccc(F)cc3)c3ccccc23)cc1 (configuration not stated)"
recorded_number = 1200

[[record]]
compound = "CN1CC[C@]2(c3cccc(O)c3)CC(=O)/C(=C/c3ccc(Cl)c(Cl)c3)[C@H]1C2"
recorded_number = 7440

[[record]]
compound = "CS(=O)(=O)n1cc(CCCCN2CCC3(CC2)OCc2ccccc23)c2ccccc21"
recorded_number = 1.3

[[record]]
compound = "O=S(=O)(c1ccccc1)n1cc(CCCCN2CCC3(CC2)OCc2ccccc23)c2ccccc21"
recorded_number = 10

[[record]]
compound = "COc1ccc(C(=O)NCCCCN2CCc3ccc([N+](=O)[O-])cc3C2)c(OC)c1OC"
recorded_number = 10300

[[record]]
compound = "COc1ccc(C)cc1NC(=O)OC1CC2CCCC(C1)N2Cc1ccc(N(C)C)cc1 (configuration not stated)"
recorded_number = 1440

[[record]]
compound = "CN1CC[C@@]2(c3cccc(O)c3)CC(=O)/C(=C/c3cccc(O)c3)[C@@H]1C2"
recorded_number = 10.5

[[record]]
compound = "CC[C@H]1C[C@@H]2C[C@H]3c4[nH]c5ccc(OC)cc5c4CCN(C2)[C@@H]13"
recorded_number = 8550


INPUT: Reported Ki, compound Fc1ccccc1N1CCN(CCCn2ccc3ccccc32)CC1 : ____
OUTPUT: 1490

----------
Experiment: Selectivity ratio of Ki for guinea pig brain sigma-1 opioid receptor to Ki for rat liver sigma-2 opioid receptor
outcome measure: Ratio Ki
The response must contain the number and no unit.

These recorded examples may help you get a feel for the data.
[[record]]
compound = "COc1cccc2c1CCC[C@@H]2NC(=O)CN1CCN(C2CCCCC2)CC1"
recorded_number = 16

[[record]]
compound = "COc1cccc2c1CCCC2CCCN1CCC(C2CCCCC2)CC1 (stereo not given)"
recorded_number = 7.6

[[record]]
compound = "COc1cccc2c1CCCC2CCCC1CCN(C2CCCCC2)CC1 (stereo not given)"
recorded_number = 29

[[record]]
compound = "COc1cccc2c1CCCC2CCCN1CCN(C2CCCCC2)CC1 (racemic)"
recorded_number = 0.56


INPUT: Reported Ratio Ki, compound COc1cccc2c1CCC[C@H]2NC(=O)CN1CCN(C2CCCCC2)CC1 : ____
OUTPUT: 2

----------
Assay: Binding affinity to sigma-2 opioid receptor (unknown origin)
Design: species or system Homo sapiens
Entries and their Ki
The answer is to be given in nM; state only the numeric part.

These recorded examples may help you get a feel for the data.
[[record]]
compound = "COc1ccc(C)cc1NC(=O)OC1CC2CCCC(C1)N2Cc1ccc(N(C)C)cc1 (stereo not given)"
outcome_measure = "Ki"
unit_of_measure = "nM"
recorded_number = 2.6

[[record]]
compound = "CCC(Oc1ccc(Cl)cc1)C(=O)OC1CC2CCC(C1)N2C (racemic)"
outcome_measure = "Ki"
unit_of_measure = "nM"
recorded_number = 67.5

[[record]]
compound = "COc1ccc(CN2C3CCC2CC3)cc1OC"
outcome_measure = "Ki"
unit_of_measure = "nM"
recorded_number = 43

[[record]]
compound = "CC[C@H]1C[C@H]2C[C@H]3c4[nH]c5ccc(OC)cc5c4CCN(C2)[C@@H]13"
outcome_measure = "Ki"
unit_of_measure = "nM"
recorded_number = 201

[[record]]
compound = "Fc1ccccc1N1CCN(CCCn2ccc3ccccc32)CC1"
outcome_measure = "Ki"
unit_of_measure = "nM"
recorded_number = 75

[[record]]
compound = "CN1CC[C@]2(c3cccc(O)c3)CC(=O)/C(=C/c3ccc(Cl)c(Cl)c3)[C@H]1C2"
outcome_measure = "Ki"
unit_of_measure = "nM"
recorded_number = 13.4

[[record]]
compound = "CS(=O)(=O)n1cc(CCCCN2CCC3(CC2)OCc2ccccc23)c2ccccc21"
outcome_measure = "Ki"
unit_of_measure = "nM"
recorded_number = 0.05

[[record]]
compound = "CN1CC[C@]2(c3cccc(O)c3)CC(=O)/C(=C/c3cccc(O)c3)[C@H]1C2"
outcome_measure = "Ki"
unit_of_measure = "nM"
recorded_number = 16.5

[[record]]
compound = "COc1cc2c(cc1OC)CN(CCNC(=O)c1cc(Br)cc(OC)c1OC)CC2"
outcome_measure = "Ki"
unit_of_measure = "nM"
recorded_number = 16.4


Could you now consider this next compound?
INPUT: Reported Ki, compound Fc1ccc(C2=CC3CCC(C2)N3CCCCc2cn(-c3ccc(F)cc3)c3ccccc23)cc1 (stereo not given) : ____
OUTPUT: 2.5

----------
Organism: Homo sapiens
Test: Selectivity ratio of Ki for sigma-1 opioid receptor (unknown origin) to Ki for sigma-2 opioid receptor (unknown origin)
Entries and their Ratio Ki
The response must contain the number and no unit.

[[record]]
compound = "COc1ccc(C)cc1NC(=O)OC1CC2CCCC(C1)N2Cc1ccc(N(C)C)cc1 (stereo unspecified)"
recorded_number = 553

[[record]]
compound = "CN1CC[C@]2(c3cccc(O)c3)CC(=O)/C(=C/c3cccc(O)c3)[C@H]1C2"
recorded_number = 185

[[record]]
compound = "Fc1ccccc1N1CCN(CCCn2ccc3ccccc32)CC1"
recorded_number = 20

[[record]]
compound = "CN1CC[C@]2(c3cccc(O)c3)CC(=O)/C(=C/c3ccc(Cl)c(Cl)c3)[C@H]1C2"
recorded_number = 555


INPUT: Reported Ratio Ki, compound COc1cc2c(cc1OC)CN(CCNC(=O)c1cc(Br)cc(OC)c1OC)CC2 : ____
OUTPUT: 179

INPUT: Reported Ratio Ki, compound CN1CC[C@@]2(c3cccc(O)c3)CC(=O)/C(=C/c3cccc(O)c3)[C@@H]1C2 : ____
OUTPUT: 0.07

----------
Molecular target: Sigma non-opioid intracellular receptor 1 (Cavia porcellus, UniProt Q60492)
Sequence (Q60492 whole entry): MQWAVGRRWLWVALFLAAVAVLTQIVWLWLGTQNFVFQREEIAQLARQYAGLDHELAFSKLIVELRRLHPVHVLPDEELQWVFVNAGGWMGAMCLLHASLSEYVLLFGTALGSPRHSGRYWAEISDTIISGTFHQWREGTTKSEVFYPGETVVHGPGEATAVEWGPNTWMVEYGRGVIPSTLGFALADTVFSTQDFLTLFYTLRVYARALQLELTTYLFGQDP
Experiment: Binding affinity to guinea pig brain membrane sigma-1 opioid receptor by radioligand displacement assay
outcome measure: Ki (nM)
The answer is to be given in nM; state only the numeric part.

INPUT: Can you look up Ki on Sigma non-opioid intracellular receptor 1 (Cavia porcellus, UniProt Q60492) for OC12C3C4CC5C6C4C1C6C(C53)N2Cc1ccc(F)cc1 (stereo unspecified) ?
OUTPUT: 152
